biological target: UniProt:P07374; assay type: biochemical
Sequence (P07374 whole entry, looked up): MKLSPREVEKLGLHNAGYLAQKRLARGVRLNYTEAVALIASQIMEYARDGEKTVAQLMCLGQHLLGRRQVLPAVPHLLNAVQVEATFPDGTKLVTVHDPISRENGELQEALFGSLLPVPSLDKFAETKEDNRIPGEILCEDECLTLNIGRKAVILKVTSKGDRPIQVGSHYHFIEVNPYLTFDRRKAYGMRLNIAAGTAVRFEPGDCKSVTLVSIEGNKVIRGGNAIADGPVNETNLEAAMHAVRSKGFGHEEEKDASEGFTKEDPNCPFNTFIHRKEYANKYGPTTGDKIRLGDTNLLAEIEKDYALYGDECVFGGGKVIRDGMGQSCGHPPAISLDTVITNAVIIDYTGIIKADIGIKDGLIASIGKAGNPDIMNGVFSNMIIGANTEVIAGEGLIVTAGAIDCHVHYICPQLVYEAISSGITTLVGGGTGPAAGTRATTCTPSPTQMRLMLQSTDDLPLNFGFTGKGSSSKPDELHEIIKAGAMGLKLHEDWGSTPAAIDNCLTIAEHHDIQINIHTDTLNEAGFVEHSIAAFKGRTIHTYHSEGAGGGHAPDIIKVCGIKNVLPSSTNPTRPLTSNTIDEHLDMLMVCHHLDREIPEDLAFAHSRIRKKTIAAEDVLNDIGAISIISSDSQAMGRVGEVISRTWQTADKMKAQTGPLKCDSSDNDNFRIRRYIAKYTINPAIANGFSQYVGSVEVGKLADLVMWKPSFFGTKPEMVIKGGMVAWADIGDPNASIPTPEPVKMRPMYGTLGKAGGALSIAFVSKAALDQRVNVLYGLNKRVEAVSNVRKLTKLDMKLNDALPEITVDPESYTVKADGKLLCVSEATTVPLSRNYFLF
property: potency as urease inhibitor compared to the standard drug thiourea

q: Test system UniProt:P07374; read-out potency as urease inhibitor compared to the standard drug thiourea; what value for Fc1ccc2ncc(/C=N\Nc3nc(-c4ccc(-c5ccccc5)cc4)co3)n2c1 [4c] ?
a: three-fold least potent

q: Requested read-out potency as urease inhibitor compared to the standard drug thiourea, target or system UniProt:P07374, entry Cc1ccc(-c2ccc(-c3coc(N/N=C\c4cnc5ccc(F)cn45)n3)cc2)cc1 [4f]
a: three-fold least potent

q: Look up potency as urease inhibitor compared to the standard drug thiourea with UniProt:P07374 for this molecule: CN(C)c1ccc(-c2coc(N/N=C\c3cnc4ccc(F)cn34)n2)cc1 [4 l]
a: three-fold least potency

q: Query potency as urease inhibitor compared to the standard drug thiourea on UniProt:P07374 for Cc1ccccc1-c1coc(N/N=C\c2cnc3ccc(F)cn23)n1 [4p]
a: three-fold least potency
